Origin of measurements: BigSolDB 2.1

- Assay Context: in NMP, 298.15 K

{"columns": ["Smiles Code", "solubility (mole fraction)"],
 "data": [
  ["Nc1ccc(Cl)cc1[N+](=O)[O-]", 0.106]
]}

---

- Assay Context: in cyclohexane, 298.15 K
Observable: solubility (mole fraction)

{"columns": ["Smiles Code", "Observed Value"],
 "data": [
  ["Nc1ccc(Cl)cc1[N+](=O)[O-]", 0.000468]
]}

---

- Assay Context: in methanol, 288.15 K
Observable: solubility (mole fraction)

{"columns": ["Smiles Code", "Observed Value"],
 "data": [
  ["Nc1ccc(Cl)cc1[N+](=O)[O-]", 0.0199]
]}

---

- Assay Context: in 1,4-dioxane, 313.15 K

{"columns": ["Smiles Code", "solubility (mole fraction)"],
 "data": [
  ["Nc1ccc(Cl)cc1[N+](=O)[O-]", 0.0828]
]}

---

- Assay Context: in ethyl acetate, 308.15 K

{"columns": ["Smiles Code", "solubility (mole fraction)"],
 "data": [
  ["Nc1ccc(Cl)cc1[N+](=O)[O-]", 0.0883]
]}

---

- Assay Context: in n-propanol, 313.15 K

{"columns": ["Smiles Code", "solubility (mole fraction)"],
 "data": [
  ["Nc1ccc(Cl)cc1[N+](=O)[O-]", 0.0362]
]}

---

- Assay Context: in water, 298.15 K

{"columns": ["Smiles Code", "solubility (mole fraction)"],
 "data": [
  ["Nc1ccc(Cl)cc1[N+](=O)[O-]", "2.5e-05"]
]}

---

- Assay Context: in ethanol, 308.15 K
Observable: solubility (mole fraction)

{"columns": ["Smiles Code", "Observed Value"],
 "data": [
  ["Nc1ccc(Cl)cc1[N+](=O)[O-]", 0.0323]
]}

---

- Assay Context: in ethanol, 278.15 K

{"columns": ["Smiles Code", "solubility (mole fraction)"],
 "data": [
  ["Nc1ccc(Cl)cc1[N+](=O)[O-]", 0.013]
]}

---

- Assay Context: in n-butanol, 323.15 K

{"columns": ["Smiles Code", "solubility (mole fraction)"],
 "data": [
  ["Nc1ccc(Cl)cc1[N+](=O)[O-]", 0.0427]
]}

---

- Assay Context: in ethanol, 323.15 K
Observable: solubility (mole fraction)

{"columns": ["Smiles Code", "Observable", "Observed Value"],
 "data": [
  ["Nc1ccc(Cl)cc1[N+](=O)[O-]", "solubility (mole fraction)", 0.0493]
]}

---

- Assay Context: in n-butanol, 313.15 K
Observable: solubility (mole fraction)

{"columns": ["Smiles Code", "Observed Value"],
 "data": [
  ["Nc1ccc(Cl)cc1[N+](=O)[O-]", 0.0301]
]}

---

- Assay Context: in n-propanol, 278.15 K
Observable: solubility (mole fraction)

{"columns": ["Smiles Code", "Observable", "Observed Value"],
 "data": [
  ["Nc1ccc(Cl)cc1[N+](=O)[O-]", "solubility (mole fraction)", 0.0119]
]}

---

- Assay Context: in ethyl acetate, 278.15 K

{"columns": ["Smiles Code", "solubility (mole fraction)"],
 "data": [
  ["Nc1ccc(Cl)cc1[N+](=O)[O-]", 0.0193]
]}

---

- Assay Context: in n-propanol, 303.15 K
Observable: solubility (mole fraction)

{"columns": ["Smiles Code", "Observed Value"],
 "data": [
  ["Nc1ccc(Cl)cc1[N+](=O)[O-]", 0.0259]
]}
